Quick list: protein stability index per entry.
Tested on: Saccharomyces cerevisiae
Test: protein stability index of tFT-peptide fusion (C-terminal peptide) (PSI (0-1 scale)); higher = more stable (slower turnover)
Conditions: genetic background: wild type; temperature: 30 C

| sequence content | protein stability index |
| --- | --- |
| VGVGPVGDVWLI | 0.698 |
| VFPPRPPRAFPP | 0.662 |
| GALWPGALRFLN | 0.171 |
| CLSGPFRSLAVF | 0.425 |

Reported Saccharomyces cerevisiae protein stability index for item LFFGVEWWRFEG was 0.56

Reported Saccharomyces cerevisiae protein stability index for item WCGDVLWLMSCG was 0.714

Reported Saccharomyces cerevisiae protein stability index for item HTWARGLGVIRP was 0.768

Reported Saccharomyces cerevisiae protein stability index for item ILLSHRLQVSSC was 0.564

Reported Saccharomyces cerevisiae protein stability index for item DGRRRHCYTITA was 0.661

Reported Saccharomyces cerevisiae protein stability index for item RRSRPSSPYLPP was 0.707

---

Test system: Saccharomyces cerevisiae
Experiment: protein stability index of tFT-peptide fusion (C-terminal peptide) (PSI (0-1 scale)); higher = more stable (slower turnover)
Settings: genetic background: wild type; temperature: 30 C
quantity name: protein stability index
Answer as a number with no unit attached.

Field: example entries. Status: answers known.
| sequence content | protein stability index |
| --- | --- |
| LFPCPLRPGCLP | 0.699 |
| VVVVSGFKGSCL | 0.637 |
| FLLGWFLFFVCS | 0.406 |

Record CPPRIAFPCGIQ , field protein stability index: 0.649

Record YYLPRPPRPTVL , field protein stability index: 0.623

Record TSPGLPLPLPSP , field protein stability index: 0.716

Record LSLPSLLLRLSL , field protein stability index: 0.644

Record RKVTQSKQGKKR , field protein stability index: 0.722

Record PPPPVFPQPTPA , field protein stability index: 0.643

Record VWGTVCSMRREG , field protein stability index: 0.63

Record STVFAICQVLPI , field protein stability index: 0.659

Record LLLQLSPLLTSL , field protein stability index: 0.646

Record GGGWDVRGGCVG , field protein stability index: 0.724

---

Test system: Saccharomyces cerevisiae
Experiment: protein stability index of tFT-peptide fusion (C-terminal peptide) (PSI (0-1 scale)); higher = more stable (slower turnover)
Conditions: genetic background: das1 deletion; temperature: 30 C
quantity name: protein stability index
Answer as a number with no unit attached.

Field: example entries. Status: answers known.
| sequence content | tested target | protein stability index |
| --- | --- | --- |
| PHSMRTTTIMCS | Saccharomyces cerevisiae | 0.296 |
| FLMLFVVLWLFL | Saccharomyces cerevisiae | 0.394 |

Shifting focus to the sequence that follows.
Record VIGLLSYFLVYL , field protein stability index: 0.407

---

System: Saccharomyces cerevisiae
Experiment: protein stability index of tFT-peptide fusion (C-terminal peptide) (PSI (0-1 scale)); higher = more stable (slower turnover)
Conditions: genetic background: wild type; temperature: 30 C
Quick list: protein stability index per entry.
Answer as a number with no unit attached.

| sequence content | protein stability index |
| --- | --- |
| KIRNLELNVQTN | 0.688 |
| CANFIGAVPGSV | 0.686 |
| RAPNSVPSIKKP | 0.68 |
| VVVQSGSSYKEY | 0.7 |
| GVGGFPSRLVGG | 0.69 |
| PYEPTIALPLLL | 0.683 |

Record WCLDCVGFSLPE , field protein stability index: 0.687

Record PCVPSRTISLPE , field protein stability index: 0.684

Record GARCHSKVTNAS , field protein stability index: 0.681

Record PPPPPLSLPPPA , field protein stability index: 0.693

---

Quick list: protein stability index per entry.
System: Saccharomyces cerevisiae
Assay: protein stability index of tFT-peptide fusion (C-terminal peptide) (PSI (0-1 scale)); higher = more stable (slower turnover)
Conditions: genetic background: das1 deletion; temperature: 30 C

| sequence content | endpoint value |
| --- | --- |
| SIVDLFRLRSLS | 0.684 |

Record VHGWRPLLFHTR , field protein stability index: 0.647

Record IKSLLGCWHKHY , field protein stability index: 0.647

Record RLPYSLTFFLLC , field protein stability index: 0.484

Record ESSRNILLWRTI , field protein stability index: 0.641

Record AFVALCACVIFV , field protein stability index: 0.215

Record LDTTSRSRAKIS , field protein stability index: 0.625

---

Quick list: protein stability index per entry.
System: Saccharomyces cerevisiae
Experiment: protein stability index of tFT-peptide fusion (C-terminal peptide) (PSI (0-1 scale)); higher = more stable (slower turnover)
Conditions: genetic background: wild type; temperature: 30 C
Answer as a number with no unit attached.

Field: example entries. Status: answers known.
| sequence content | protein stability index |
| --- | --- |
| LPPPLPVRSPLF | 0.68 |
| IPHLNCCCCLVR | 0.442 |
| FFCCRLPCLFVL | 0.252 |
| SFLLGCCWLVLC | 0.155 |
| EAIGGVPASSRP | 0.661 |

Reported Saccharomyces cerevisiae protein stability index for item SENKRKEHRMSF was 0.712

Reported Saccharomyces cerevisiae protein stability index for item WICFDFLLPVAL was 0.549

---

Test system: Saccharomyces cerevisiae
Assay: protein stability index of tFT-peptide fusion (C-terminal peptide) (PSI (0-1 scale)); higher = more stable (slower turnover)
Conditions: genetic background: wild type; temperature: 30 C
Quick list: protein stability index per entry.
Answer as a number with no unit attached.

Field: example entries. Status: answers known.
| sequence content | quantity name | endpoint value |
| --- | --- | --- |
| PPSLRVVMVVGR | protein stability index | 0.611 |
| LASARPLILSWP | protein stability index | 0.628 |
| VRRWGKWSIVGW | protein stability index | 0.736 |
| RWGWWGYRGGVP | protein stability index | 0.744 |
| PIATTSVDAGRS | protein stability index | 0.634 |

Record IDLVAFCTIFAL , field protein stability index: 0.398

Record ISKEIKKRLNRY , field protein stability index: 0.63

Record LGAHLSTAPPPP , field protein stability index: 0.655

Record LSGNLLLSSLLQ , field protein stability index: 0.654

Record RGHKHSNNVSRR , field protein stability index: 0.696

Record PSLSYSRPPHPS , field protein stability index: 0.681

Record PRETRPDEAQRG , field protein stability index: 0.726

Record GPVSVTFGGTYC , field protein stability index: 0.678

Record PPSPPTPPPPLP , field protein stability index: 0.66

Record NGRENVHEWQRG , field protein stability index: 0.711

Record EKSQMPPAPAPK , field protein stability index: 0.703

Record CSFFGPGFICSL , field protein stability index: 0.666

---

System: Saccharomyces cerevisiae
Assay: protein stability index of tFT-peptide fusion (C-terminal peptide) (PSI (0-1 scale)); higher = more stable (slower turnover)
Conditions: genetic background: cdc53-1; temperature: 37 C
Quick list: protein stability index per entry.
Answer as a number with no unit attached.

| sequence content | endpoint value |
| --- | --- |
| PGFCFFLYYCMM | 0.558 |

Record LFFGLCFVFFGF , field protein stability index: 0.459

Record FCTVYFVCVWEM , field protein stability index: 0.273

Record YHRKAILMCTFS , field protein stability index: 0.55

---

Quick list: protein stability index per entry.
Tested on: Saccharomyces cerevisiae
Assay: protein stability index of tFT-peptide fusion (C-terminal peptide) (PSI (0-1 scale)); higher = more stable (slower turnover)
Conditions: genetic background: wild type; temperature: 30 C

Field: example entries. Status: answers known.
| sequence content | protein stability index |
| --- | --- |
| PSKTQKQYKTVA | 0.644 |
| IPPLTKRPAPGG | 0.684 |
| GCGDIFAEQLLL | 0.723 |

Record EIYARVQERLKI , field protein stability index: 0.617

Record SEVRGRERLAKC , field protein stability index: 0.662

Record LSRLPPTLPRTP , field protein stability index: 0.699

Record PLLPSFPPPPAP , field protein stability index: 0.51

Record PFPSPSPLARLP , field protein stability index: 0.704

---

System: Saccharomyces cerevisiae
Assay: protein stability index of tFT-peptide fusion in deletion strain of DAS1 (PSI (0-1 scale)); higher = more stable (slower turnover)
Quick list: protein stability index per entry.
Answer as a number with no unit attached.

Record PDKRNHFIKLLN , field protein stability index: 0.603

Record DSMRWTFRYWVN , field protein stability index: 0.582

Record LKILRQMMNHQN , field protein stability index: 0.692

---

Test system: Saccharomyces cerevisiae
Test: protein stability index of tFT-peptide fusion (C-terminal peptide) (PSI (0-1 scale)); higher = more stable (slower turnover)
Details: genetic background: cdc34-1; temperature: 37 C
Response field class: enum, chosen by comparing protein stability index against I (below 0.3), II (0.3 to below 0.4), III (0.4 or more)

Please review the following examples before continuing.
| sequence content | class label |
| --- | --- |
| PHSMRTTTIMCS | II |
| LFSFVCLVFFLW | II |
| GLVWSKCFFIVG | III |
| GFTIFFFFFFFV | I |

input: For this sequence, which bin applies? GCLGYTLSCFTY
output: III

input: For this sequence, which bin applies? VWRLCFPFALVR
output: I

input: For this sequence, which bin applies? WRCECELASACA
output: III

input: For this sequence, which bin applies? AWVEVYVISIGV
output: I

input: For this sequence, which bin applies? IFLLLRRIIALS
output: I

input: For this sequence, which bin applies? FFVFVVFFCFGL
output: II

input: For this sequence, which bin applies? HGVYSVLRFFFC
output: III

The measured values listed here are drawn from the supplement of paper PMC10724198.
